# assay-target: human M4 receptor (Homo sapiens)
# test-description: Calcium flux assay using fluorescent imaging (M4 PAM FLIPR assay)
# Type: cell-based
# Design: expressed in transfected cells; host or cells: CHO (monoclonal line, clone 2)
# condition-set: Table 1; CHO cells expressing human M4+Gqi5; acetylcholine EC20
readout-kind: pEC50
Numbers only, as −log10 of the molar value.

Some solved cases for reference:
Cc1ccc(N2CC[C@@H](C(=O)N3Cc4nc(C)c(Cl)c(C)c4C3)C2)cn1 [Example 4]    6.26
Cc1nc2c(c(C)c1Cl)CN(C(=O)[C@@H]1CCN(c3cnc(C4COC4)nc3)C1)C2 [Example 34]    6.24
Cc1nc2c(c(C)c1Cl)CN(C(=O)[C@@H]1CCN(c3cnc(C#N)cn3)C1)C2 [Example 44]    5.95
COCc1nc2c(c(C)c1Cl)CN(C(=O)[C@@H]1CCN(c3cc(C)ncn3)C1)C2 [Example 53]    6.74
Cc1nc2c(c(C)c1Cl)CN(C(=O)[C@@H]1CCN(c3ccnc(C(F)(F)F)n3)C1)C2 [Example 23]    6.04

Look at each molecule and report its pEC50.
1. Cc1cncc(N2CC[C@@H](C(=O)N3Cc4nc(C)c(Cl)c(C)c4C3)C2)n1 [Example 51]
2. COc1cncc(N2CC[C@@H](C(=O)N3Cc4nc(C)c(Cl)c(C)c4C3)C2)c1 [Example 18]

Reply text:
6.44
6.26

Look at each molecule and report its pEC50.
1. Cc1nc2c(c(C)c1Cl)CN(C(=O)[C@@H]1CCN(c3nccc(C(F)(F)F)n3)C1)C2 [Example 50]
2. Cc1ncccc1N1CC[C@@H](C(=O)N2Cc3nc(C)c(Cl)c(C)c3C2)C1 [Example 12]
3. CNc1ccc(N2CC[C@@H](C(=O)N3Cc4nc(C)c(Cl)c(C)c4C3)C2)cn1 [Example 11]

Reply text:
5.74
5.88
5.87

Look at each molecule and report its pEC50.
1. Cc1nc2c(c(C)c1Cl)CN(C(=O)[C@@H]1CCN(c3cncc(C(F)(F)F)c3)C1)C2 [Example 14]
2. Cc1ccc(N2CC[C@@H](C(=O)N3Cc4nc(C)c(Cl)c(C)c4C3)C2)nn1 [Example 40]
3. Cc1nc2c(c(C)c1Cl)CN(C(=O)[C@@H]1CCN(c3cncc(C4CC4)n3)C1)C2 [Example 43]
4. Cc1nc2c(c(C)c1Cl)CN(C(=O)[C@@H]1CCN(c3ccnc(C(F)F)c3)C1)C2 [Example 20]
5. Cc1cc(N2CC[C@@H](C(=O)N3Cc4nc(C)c(Cl)c(C)c4C3)C2)ccn1 [Example 5]

Reply text:
1: 5.45; 2: 5.89; 3: 5.92; 4: 6.74; 5: 6.31

----------
# assay-target: human M4 receptor (Homo sapiens, UniProt P08173)
# Sequence (P08173 whole entry): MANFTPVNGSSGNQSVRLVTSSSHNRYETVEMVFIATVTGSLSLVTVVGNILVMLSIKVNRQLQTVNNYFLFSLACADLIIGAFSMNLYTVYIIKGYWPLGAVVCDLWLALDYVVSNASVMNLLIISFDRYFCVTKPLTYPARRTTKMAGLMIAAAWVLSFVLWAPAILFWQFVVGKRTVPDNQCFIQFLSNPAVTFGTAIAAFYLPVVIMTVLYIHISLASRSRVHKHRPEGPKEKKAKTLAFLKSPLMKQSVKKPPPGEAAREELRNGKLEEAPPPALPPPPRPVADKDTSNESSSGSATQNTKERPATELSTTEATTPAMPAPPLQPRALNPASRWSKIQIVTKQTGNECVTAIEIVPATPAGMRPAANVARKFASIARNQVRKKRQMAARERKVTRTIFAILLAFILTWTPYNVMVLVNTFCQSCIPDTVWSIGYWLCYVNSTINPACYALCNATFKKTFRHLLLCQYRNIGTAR
# test-description: cAMP assay for M4 positive allosteric modulators (M4 PAM cAMP assay)
# Format: cell-based
# Parameters: expressed in transfected cells; host or cells: CHO-K1
# condition-set: Table 1; CHO-K1 cells expressing human M4; forskolin 7.5 μM + acetylcholine EC20 (0.2 nM)
readout-kind: pEC50
Give bare numbers, as −log10 of the molar value.

Cc1nc2c(c(C)c1Cl)CN(C(=O)[C@@H]1CCN(c3ccc(C(F)(F)F)nc3)C1)C2 [Example 9]    5.97
Cc1nc2c(c(C)c1Cl)CN(C(=O)[C@@H]1CCN(c3cnc(N(C)C)nc3)C1)C2 [Example 36]    5.76
COCc1nc2c(c(C)c1Cl)CN(C(=O)[C@@H]1CCN(c3ccncn3)C1)C2 [Example 55]    6.72

Turning now to a further record.
Inquiry: Entry Cc1ccnc(N2CC[C@@H](C(=O)N3Cc4nc(C)c(Cl)c(C)c4C3)C2)n1 [Example 49] , system human M4 receptor (Homo sapiens, UniProt P08173): what pEC50 was measured?
Reply text: 5.48
